These entries and their values trace back to patent US20190064177A1.

Answer each item with its documented noFAD/FAD.
# TARGET_OF_ASSAY: Diaphorase
# ASSAY_COMMENT: peptide array, 1 uM diaphorase, binding without FAD / with FAD

Measured noFAD/FAD of "RWKYQKFNGGSG" : 2.63

Sample "YRLNLKHPVGGSG" ; noFAD/FAD observed: 3.05

Short answer for "SVLEGYQAVFGGSG" : noFAD/FAD was 0.503

For this binder ( "KNRPYNKDLEDGSG" ), measured noFAD/FAD is 0.142

Notebook: "AFYGLELGGSG" , noFAD/FAD read as 0.541

// noFAD/FAD lookup, binder = "RWSFPAKGGSG" , result: 2.77

GET /value?item= "LDRLGEYQFSGSG" &field=noFAD/FAD returns 0.609

// recorded noFAD/FAD for "ELFGALFKGGSG" : 0.612

Please fill in: noFAD/FAD reported for "RYAYFQHLGGSG" = 2.73

Lab note: "EGYANKLLALFSGSG" gave noFAD/FAD of 0.599

Per the records, this binder ( "VERASYNLDGSG" ) has noFAD/FAD equal to 0.339

Sample RNWYGGS [RNWYGGSG] ; noFAD/FAD observed: 2.66

Memo: "DLDKAFGGSG" , reported noFAD/FAD: 0.296

The binder "KHSFQKELGGSG" showed noFAD/FAD equal to 2.87

The recorded noFAD/FAD for entry "RSHPKHNVGSG" equals 0.504

Reported noFAD/FAD for "YRPYGPVYNGGSG" was 2.77
